The following molecules are listed with their measured pKi values.
- tested_on: cloned human 5-HT2A receptor (Homo sapiens)
- Construct: expressed in transfected cells; host or cells: CHO-K1
- Sequence (P28223 whole entry): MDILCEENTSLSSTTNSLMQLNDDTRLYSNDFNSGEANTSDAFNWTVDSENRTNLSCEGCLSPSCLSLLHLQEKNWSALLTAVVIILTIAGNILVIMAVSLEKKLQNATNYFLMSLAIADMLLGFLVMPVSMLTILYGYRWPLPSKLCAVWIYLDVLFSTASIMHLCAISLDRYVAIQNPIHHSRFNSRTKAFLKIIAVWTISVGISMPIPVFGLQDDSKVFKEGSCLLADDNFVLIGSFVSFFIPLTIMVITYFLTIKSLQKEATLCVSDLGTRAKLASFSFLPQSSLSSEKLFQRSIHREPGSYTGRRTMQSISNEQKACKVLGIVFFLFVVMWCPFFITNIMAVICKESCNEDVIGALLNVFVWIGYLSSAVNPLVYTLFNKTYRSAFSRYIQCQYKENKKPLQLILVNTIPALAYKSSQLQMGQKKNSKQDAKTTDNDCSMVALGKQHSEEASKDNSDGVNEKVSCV
- assay_text: Determination of Ki at 5-HT2A receptor (radioligand binding, [3H]-Ketanserine)
- condition_notes: CHO-K1 recombinant cells; [3H]-Ketanserine 1.25 nM; read-out: Ki h5-HT2A
pKi: −log10 of the molar value. Structures can show the parent of a compound that is named as a salt.
experimental_endpoint: pKi

>>> result("O=C1C[C@H]2COCCN2C(=O)N1C[C@H]1CCCC[C@H]1CN1CCN(c2nsc3ccccc23)CC1")
8.07
>>> result("COC(=O)N1CCN2C(=O)N(CCCCN3CCC(c4noc5cc(F)ccc45)CC3)C(=O)C[C@@H]2C1 [Example 35]")
8.32
>>> result("O=C1C[C@@H]2COCCN2C(=O)N1CCCCN1CCN(c2nsc3ccccc23)CC1 [Example 18, oxalate]")
8.38
>>> result("O=C1C[C@@H]2CCCN2C(=O)N1CCCN1CCC(c2noc3ccccc23)CC1 [Example 44, oxalate]")
7.22

Where do these numbers come from? They come from patent US12391698B2.
